subject.of.test: PD brain-derived a-syn aggregates (Homo sapiens, UniProt P37840)
Construct: from tissue; host or cells: human PD donor brain, sarkosyl-insoluble 100,000 x g pellet
assay.procedure: Micro-radiobinding competition assay against Example-1 [^3H-1] (Table 8)
Assay type: binding
measurement.context: 1 μM non-radiolabelled example compound vs Example-1 [^3H-1] ligand; human PD brain-derived a-syn aggregates
metric.name: Competition at 1 μM (%)

O=C1c2cn(-c3ccc(N4CC[C@H](F)C4)nc3)nc2CN1c1ccns1 [Example 127] :: 86
Cn1cc(N2Cc3nn(-c4ccc(N5CC(F)C5)nc4)cc3C2=O)cn1 [Example 124] :: 98
COc1ccc(N2Cc3nn(-c4ccc(N5CC[C@H](F)C5)nc4)cc3C2=O)nc1 [Example 28] :: 99

A: Cn1ccc(N2Cc3nn(-c4ccc(N5CC[C@@H](F)C5)nc4)cc3C2=O)n1 [Example 116]
B: COc1ccc(-n2cc3c(n2)CN(c2cccc(F)n2)C3=O)cn1 [Example 159]
Which entry has a larger number for Competition at 1 μM (%), A or B ? The response must carry the label of the picked entry.
A
(A: 97%, B: 67%)
